- Tested on: NK-YS (IL-2 2.5 ng/mL);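 further: normalised to DMSO-only wells as negative and benzethonium chloride as positive control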
- MEASUREMENT_DESCRIPTION: percent inhibition of viability; higher = more inhibition
- STUDY_CONDITIONS: 72 h; 1 nM
I'd be grateful if you could share measured percent inhibition of viability for these entries.
Answers are plain numbers, in %.

* O=C(Nc1cccc(Cl)c1)Nc1ncc(CCNc2ncnc3ccsc23)s1 [SNS-314] (max concentration tested 1000 nM) | -3.63
* CNC(=O)c1cccc2cc(Oc3ccnc4cc(OCC5(N)CC5)c(OC)cc34)ccc12 [Lucitanib] (max concentration tested 10000 nM) | -6.67
* CC(C)Oc1ccc(C(=O)N[C@H](CNC(=O)CN(C)C)Cc2ccc(-c3cn4cccc([C@H](C)O)c4n3)cc2)cc1Cl (max concentration tested 10000 nM) | -1.16
* O=NN(CCCl)C(=O)NCCCl [Carmustine] (max concentration tested 10000 nM) | -3.2
* NC(=O)c1ccc(I)c([N+](=O)[O-])c1 [Iniparib] (max concentration tested 10000 nM) | -0.99

Please give percent inhibition of viability for each item listed below.
1. Cn1cnc2c(F)c(Nc3ccc(Br)cc3Cl)c(C(=O)NOCCO)cc21 [Selumetinib] (max concentration tested 10000 nM)
2. COc1cc2ncnc(Nc3ccc(F)c(Cl)c3)c2cc1OCCCN1CCOCC1 [Gefitinib] (max concentration tested 10000 nM)
3. Cn1cc(C2=Nc3cc(NC(=O)C(N)C4CCCCC4)cc4c3C2=CNNC4=O)cn1 (stereo not drawn) (max concentration tested 10000 nM)
4. CCOc1cc2ncc(C#N)c(Nc3ccc(OCc4ccccn4)c(Cl)c3)c2cc1NC(=O)/C=C/CN(C)C [Neratinib] (max concentration tested 1000 nM)
5. CC1=C(/C=C/C(C)=C/C=C/C(C)=C/C(=O)O)C(C)(C)CCC1 [Tretinoin] (max concentration tested 10000 nM)
6. CCc1c2c(nc3ccc(OC(=O)N4CCC(N5CCCCC5)CC4)cc13)-c1cc3c(c(=O)n1C2)COC(=O)[C@]3(O)CC [Irinotecan] (max concentration tested 10000 nM)
7. N#CC(c1ccnc(OCc2ccc(CN3CCOCC3)cc2)n1)c1nc2ccccc2s1 (stereo not drawn) [Bentamapimod] (max concentration tested 10000 nM)
8. CS(=O)(=O)CCNCc1ccc(-c2ccc3ncnc(Nc4ccc(OCc5cccc(F)c5)c(Cl)c4)c3c2)o1 [Lapatinib] (max concentration tested 1000 nM)

1: 5.92; 2: -1.51; 3: -0.41; 4: -4.96; 5: -3.42; 6: -7.5; 7: -3.99; 8: -8.47

Value source: the supplement of paper PMC5908809
